# assay_target: T1, CXCR4 receptor (human, UniProt P61073 1-352)
# T1 construct: whole, on cells; Endogenous receptor on human cells
# T1 sequence (P61073 whole entry): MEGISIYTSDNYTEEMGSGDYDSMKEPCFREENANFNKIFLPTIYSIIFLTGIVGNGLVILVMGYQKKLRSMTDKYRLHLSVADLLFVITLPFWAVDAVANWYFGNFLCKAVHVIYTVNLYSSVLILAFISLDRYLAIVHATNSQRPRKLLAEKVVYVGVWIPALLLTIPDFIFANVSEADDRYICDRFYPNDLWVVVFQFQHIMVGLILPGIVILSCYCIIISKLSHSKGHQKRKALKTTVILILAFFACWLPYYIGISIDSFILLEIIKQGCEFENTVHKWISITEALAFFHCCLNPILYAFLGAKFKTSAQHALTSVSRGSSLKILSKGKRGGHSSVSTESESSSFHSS
# assay_info: displacement of 125I-CXCL12 from Jurkat cells, filter binding
Numbered stars: 1 amine (or outer) side, 2 acyl side, 3 side chain; on linkers, the order of the positions; unused ones are H or OH. Bridge positions count the residues as written; N and C are the ends. Square brackets hold non-standard residues; d marks the D form. * marks the point of attachment. 2Nal = N[C@@H](Cc1ccc2ccccc2c1)C(=O)O; Benzoyl(4-F) = O=C(c1ccc(F)cc1)*; Cit = NC(=O)NCCC[C@H](N)C(=O)O; Suc = O=C(CCC(=O)[*:2])[*:1]
# note: boundary value 10 nM maps to class 0; IC50 below it maps to class 1

Q: Hello, is IC50 of the following binder strictly smaller than 10 nM? {nelfinaviryl-Suc}-R[2Nal]CY[Cit]K[dE]PYR[Cit]CR-NH2 (disulfide 3-12; also: acetate salt) [TF13]
Result: class 0

Q: What would you report for H-RR[2Nal]CYRE[dK]PYR[Cit]CR-OH (disulfide 4-13 (inferred); not fully specified; printed as H-Arg-Arg-Nal-Cys-Tyr-Arg-Glu-DLys-Pro-Tyr-Arg-Cit-Cys-Arg-OH; also: acetate salt) [TE14004] ?
Result: class 1

Q: Try H-RR[2Nal]CY[dE]K[dE]PYR[Cit]CR-NH2 (disulfide 4-13; also: acetate salt) [TE14013] next.
Result: class 1

Q: Consider next the binder H-RR[2Nal]CY[Cit]K[dE]PYR[Cit]CR-NH2 (disulfide 4-13; also: reduced CH2-NH bond between residues 1 and 2, acetate salt) [TF15] in the same way.
Result: class 0

Q: Further, for {Benzoyl(4-F)}-RR[2Nal]CY[Cit]K[dK]PYR[Cit]CR-NH2 (disulfide 4-13; also: acetate salt) [4F-benzoyl-TN14003] ?
Result: class 1

Q: Subsequent entry: H-RR[2Nal]CYRK[dK]PYE[Cit]CR-OH (disulfide 4-13 (inferred); also: acetate salt) [TE14006]
Result: class 1

Q: Another binder: {2‑desamino‑arginyl}-R[2Nal]CY[Cit]K[dE]PYR[Cit]CR-NH2 (disulfide 3-12; also: acetate salt) [TF8]
Result: class 1

Q: Now the same for H-R[2Nal]CY[Cit]K[dE]PYR[Cit]CR-NH2 (disulfide 3-12; also: acetate salt) [TF17]
Result: class 0

Q: And H-RR[2Nal]CYRK[dE]PYR[Cit]CR-OH (disulfide 4-13; also: acetate salt) [TE14005] ?
Result: class 1
